# credit: patent US20220144812A1

# tgt: CREBBP (1084-1701) (Homo sapiens, UniProt Q92793)
# Construct: measured in the following biochemical assay using CREBBP (1084-1701); purchased
# Sequence (Q92793 1084-1701): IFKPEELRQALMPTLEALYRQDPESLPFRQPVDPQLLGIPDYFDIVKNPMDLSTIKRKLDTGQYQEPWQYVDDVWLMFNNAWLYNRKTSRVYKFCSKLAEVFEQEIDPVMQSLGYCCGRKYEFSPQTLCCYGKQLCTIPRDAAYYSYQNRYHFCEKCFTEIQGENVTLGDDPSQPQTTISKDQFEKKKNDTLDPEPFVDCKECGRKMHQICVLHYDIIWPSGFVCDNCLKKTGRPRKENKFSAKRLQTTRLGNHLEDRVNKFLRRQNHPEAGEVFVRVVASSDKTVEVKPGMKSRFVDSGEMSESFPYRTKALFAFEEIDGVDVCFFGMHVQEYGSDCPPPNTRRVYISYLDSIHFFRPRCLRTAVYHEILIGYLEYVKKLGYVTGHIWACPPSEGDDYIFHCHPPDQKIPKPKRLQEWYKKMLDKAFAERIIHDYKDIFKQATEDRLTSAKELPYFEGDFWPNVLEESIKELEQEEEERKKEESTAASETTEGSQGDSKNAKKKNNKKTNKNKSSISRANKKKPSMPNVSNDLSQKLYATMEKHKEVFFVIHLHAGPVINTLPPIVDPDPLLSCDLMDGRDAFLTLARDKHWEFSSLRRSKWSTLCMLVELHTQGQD
# protocol.details: Biochemical assay for CREBBP (1084-1701), SAMDI
# details: SAMDI, read-out: CREBBP Biochemistry IC50
measured.endpoint: IC50 (nM)

Some solved entries appear below for comparison.
CCn1ncc(CN(C)C(=O)c2nc(-n3cc(CCN(C)C)cn3)nc3ccc(Cl)cc23)c1C [Compound 405]: 5700
CCc1ncc(CN(C)C(=O)c2cc(-c3ccc(OCC(O)CNC)c(C)n3)nc3ccc(COC)cc23)n1C (stereo not drawn) [Compound 477]: 141
CCn1ncc(CN(C)C(=O)c2cc(-c3ccccn3)nc3ccccc23)c1C [Compound 326]: 40000
CCc1ncc(CN(C)C(=O)c2nc(-c3cc(C)nc(NCCN(C)C)c3)nc3ccc(Cl)cc23)n1C [Compound 583]: 34
CCn1ncc(CN(C)C(=O)c2nc(-c3cc(C(=O)NC4CCN(C)CC4)n(C)n3)nc3ccc(Cl)cc23)c1C [Compound 65]: 410

[1] CCc1ncc(CN(C)C(=O)c2cc(-c3ccccc3Cl)nc3ccc(Cl)cc23)n1C [Compound 336]
[2] CCn1ncc(CN(C)C(=O)c2nc(-c3cc(C)nc(NCCNC)c3)nc3ccc(Cl)cc23)c1C [Compound 8]
[3] CCn1ncc(CN(C)C(=O)c2nc(-n3cc4c(n3)CNCC4)nc3ccc(Cl)cc23)c1C [Compound 179]
Input line: Sort these compounds on IC50 so the largest reading comes first. Please express your ranking as an ordered list of the labels.
Output line: 3, 1, 2
(3: 115000 nM, 1: 690 nM, 2: 33 nM)

[I] CCn1ncc(CN(C)C(=O)c2nc(-c3ccc(OCCCNC)c(C)c3Cl)nc3ccc(Cl)cc23)c1C [Compound 2]
[II] CCn1ncc(CN(C)C(=O)c2nc(-c3ccccn3)nc3ccc(Cl)cc23)c1C [Compound 262]
Input line: API: POST /compare with I and II ; response names the item with higher IC50. Lab log: write the label of the selected item as the result.
Output line: II
(II: 5400 nM, I: 22 nM)

[I] CCn1ncc(CN(C)C(=O)c2nc(-c3cnn(CCCNC)c3)nc3ccc(Cl)cc23)c1C [Compound 250]
[II] CCn1ncc(CN(C)C(=O)c2nc(-c3ccc(OCCN4CCCC4)c(Cl)c3)nc3ccc(Cl)cc23)c1C [Compound 54]
Input line: API: POST /compare with I and II ; response names the item with higher IC50. Lab log: write the label of the selected item as the result.
Output line: I
(I: 121000 nM, II: 63 nM)

[a] CCn1ncc(CN(C)C(=O)c2nc(-c3ccc(OCC(O)CNC)c(Cl)c3)nc3ccc(Cl)cc23)c1C (stereo not drawn) [Compound 25]
[b] CCn1ncc(CN(C)C(=O)c2cc(-c3cn(C)c(OC)n3)nc3cc(Cl)ccc23)c1C [Compound 185]
[c] CCn1ncc(CN(C)C(=O)c2nc(-c3ccc(OCCCNC)c(C(C)C)c3)nc3ccc(Cl)cc23)c1C [Compound 440]
Input line: Sort entries by IC50 from minimum to maximum value. Please express your ranking as an ordered list of the labels.
Output line: a, c, b
(a: 27 nM, c: 88.2 nM, b: 98000 nM)
